assay: APR_HepG2_MitoMembPot_24hr: Apredica 24-hour HepG2 Assay for Mitochondrial Membrane Potential (AID 2282911); conditions: imaging, actives raise or lower the signal
Calls of active or inactive are those of the source. Rule for the calls: active = hit-call score of the fitted dose curve at least 0.9, where 1 is the maximum; inactive = score below 0.9.
Hi there, use one of these labels in your reply, thanks! t = active, f = inactive

See these solved cases before continuing.
COMPOUND	ANSWER_LABEL
CCCCCCc1ccc(O)cc1O	t
COC(=O)CC(=O)OC	f
CC[C@H](C)C(=O)O[C@H]1C[C@@H](C)C=C2C=C[C@H](C)[C@H](CC[C@@H]3C[C@@H](O)CC(=O)O3)[C@H]21	t
Clc1nc(Cl)c(Cl)c(Cl)c1Cl	f

*Q* Short answer needed: outcome of this test for O=C(O)c1cccc(N(Cc2cccnc2)c2ccc(OC(F)F)c(OC(F)F)c2)c1 ?
*A* t

*Q* Please do the same for CCOc1cccc(-n2cc(C(=O)N3CCN(c4cc(C(=O)O)c5ccccc5c4)CC3)nc2-c2ccc(C)cc2)c1 as well.
*A* f

*Q* Next up: COCCOc1cc2cc(C(=O)NC3CCN(C(C)C)CC3)n(CC(=O)Nc3ccc(Cl)cn3)c2cn1
*A* f

* * *

experiment: Tanguay_ZF_120hpf_TRUN_legacy: (Legacy) Oregon State University Tanguay Lab 120 Hour Post-fertilization zebrafish Assay for Truncated Body (AID 2283655)
Results filed as inconclusive are left out. Activity calls are given as the source filed them. How the source made its calls: active means hit-call score of the fitted dose curve at least 0.9, where 1 is the maximum; inconclusive means response in the unintended direction; inactive means score below 0.9.
Can you answer with just one of these options? active, inactive

Some entries whose results are on file:
MOLECULE	ANSWER_LABEL
COC(=O)CC(=O)OC	inactive
CCCCC(CC)COC(=O)CCCCCCCCC(=O)OCC(CC)CCCC (centres undefined)	inactive
COc1cccc(-c2ccc(/C=C\CN3CCCCCC3)cc2Cl)c1	inactive

*Q* Record lookup: outcome of this test for CC(O)CN(CCN(CC(C)O)CC(C)O)CC(C)O (centres undefined) ?
*A* inactive

*Q* CCOCCO ?
*A* inactive

*Q* Next molecule up: CCCCCCCCO
*A* inactive

*Q* Can you check Cn1c(=O)cc(Oc2ccc(F)cc2F)c2cnc(NCC(C)(C)O)nc21 next?
*A* inactive

*Q* Also need Cc1ccc(O)cc1 , thanks.
*A* inactive

* * *

experiment: Tanguay_ZF_120hpf_ActivityScore_legacy: (Legacy) Oregon State University Tanguay Lab 120 Hour Post-fertilization zebrafish Assay Score for Activity (AID 2283742)
Active and inactive are the calls of the source. Rule for the calls: active = hit-call score of the fitted dose curve at least 0.9, where 1 is the maximum; inconclusive = response in the unintended direction; inactive = score below 0.9.
Tick one outcome: YES for active, NO for inactive

Past entries and their recorded results:
MOLECULE	ANSWER_LABEL
CCOCCO	NO
CC(C)CCCCCCOC(=O)c1ccc(C(=O)OCCCCCCC(C)C)c(C(=O)OCCCCCCC(C)C)c1	NO
CCCC(=O)OCC	NO
CC(O)CN(CCN(CC(C)O)CC(C)O)CC(C)O (stereo not drawn)	NO

*Q* // return assay outcome for CCCCCCCCO
*A* NO

*Q* How about COc1ccc(-n2nc(C(F)F)cc2-c2ccc(S(C)=O)cc2)cc1 (stereo not drawn) ?
*A* YES

* * *

assay: APR_HepG2_MitoMass_24hr: Apredica 24-hour HepG2 Assay for Mitochondrial Mass (AID 2282912); settings: high-content imaging, actives raise or lower the signal
Active and inactive are the calls of the source. Rule for the calls: active = hit-call score of the fitted dose curve at least 0.9, where 1 is the maximum; inactive = score below 0.9.
Outcomes you can answer with include only these: class 1 (active), class 0 (inactive)

Check out these entries, answers already filled in.
COMPOUND	ANSWER_LABEL
O=C(O)CC(O)C(=O)O (stereo unspecified)	class 0
Oc1ccc2c(c1)-c1ccccc1C2	class 1
COc1cccc(-c2ccc(/C=C\CN3CCCCCC3)cc2Cl)c1	class 1

*Q* What outcome does the record of this test show for CCn1nc(Cc2ccccc2)cc1C1CCN(C[C@H]2C[C@H](N(C)[C@@H](C(=O)O)C(C)C)C[C@@H]2c2cccc(F)c2)CC1 ?
*A* class 0

*Q* What about this compound? C[C@](N)(Cc1ccc(O)c(O)c1)C(=O)O
*A* class 0

*Q* Same question, CCCCC(CC)COC(=O)c1ccc(C(=O)OCC(CC)CCCC)cc1 (stereo unspecified) this time
*A* class 0

*Q* Okay, and CCN(C(=O)c1cc(C)cc(OC[C@H](C)Nc2ccncc2)c1)C(C)C ?
*A* class 0

*Q* What do we get for O=C1OC(=O)C2C3C=CC(C3)C12 (stereo unspecified) ?
*A* class 0

*Q* Here is the next compound: Cn1c(=O)cc(Oc2ccc(F)cc2F)c2cnc(NCC(C)(C)O)nc21
*A* class 0

*Q* Next up: COCCOc1cc2cc(C(=O)NC3CCN(C(C)C)CC3)n(CC(=O)Nc3ccc(Cl)cn3)c2cn1
*A* class 1

*Q* For COC(=O)CC(=O)OC then?
*A* class 0

* * *

Target: human Casein Kinase 1-delta (CK1D), CSNK1D (gene 1453) (UniProt P48730)
Sequence (P48730 whole entry, looked up): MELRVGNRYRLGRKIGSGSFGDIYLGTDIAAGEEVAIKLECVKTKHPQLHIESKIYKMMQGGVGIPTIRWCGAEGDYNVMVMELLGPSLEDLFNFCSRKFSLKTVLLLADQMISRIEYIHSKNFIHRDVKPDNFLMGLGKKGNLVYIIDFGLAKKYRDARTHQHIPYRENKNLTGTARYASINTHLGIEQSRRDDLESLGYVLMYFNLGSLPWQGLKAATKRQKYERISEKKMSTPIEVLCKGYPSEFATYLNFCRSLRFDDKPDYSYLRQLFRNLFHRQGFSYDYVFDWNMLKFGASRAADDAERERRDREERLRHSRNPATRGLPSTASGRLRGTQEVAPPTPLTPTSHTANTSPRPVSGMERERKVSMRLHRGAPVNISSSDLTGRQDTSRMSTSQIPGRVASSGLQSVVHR
Assay: NVS_ENZ_hCK1D: NovaScreen (NVS) Enzymatic Assay for human Casein Kinase 1-delta (CK1D) (AID 2283148)
Protocol: NVS_ENZ_hCK1D is a biochemical, single-readout assay that uses extracted gene-proteins in a cell-free assay. Measurements were taken 1 hour after chemical dosing in a 384-well plate.NVS_ENZ_hCK1D is one of one assay component(s) measured or calculated from the NVS_ENZ_hCK1D assay. […] This assay endpoint, NVS_ENZ_hCK1D, was analyzed in the positive analysis fitting direction relative to DMSO as the negative control and baseline of activity. […]
Results filed as inconclusive are left out. Active and inactive are the calls of the source. The calls were made as follows: active = hit-call score of the fitted dose curve at least 0.9, where 1 is the maximum; inconclusive = response in the unintended direction; inactive = score below 0.9.
REPORTED_ENDPOINT: AC50

Check out these entries, answers already filled in.
Cc1[nH]cnc1C[C@H]1CCc2c(C)c3ccccc3n2C1=O 13900 nM (active)
O=C(O)CCN(C1(C(=O)NO)CCCC1)S(=O)(=O)c1ccc(Oc2ccc(F)cc2)cc1 inactive
Cc1ccc(N)cc1O inactive
Cn1c(=O)cc(Oc2ccc(F)cc2F)c2cnc(NCC(C)(C)O)nc21 11.9 nM (active)
CN(C)c1ccc(N=NS(=O)(=O)O)cc1 inactive

*Q* Form field: reported AC50 of C1=CCCC=CCCC=CCC1
*A* inactive

*Q* Record: COc1ccc2sc(C(=O)Nc3nnn[nH]3)c(OC(C)C)c2c1
*A* 385 nM (active)

* * *

target: Retinoic acid receptor alpha (Homo sapiens) (UniProt P10276); assay: ATG_DR5_RAR_CIS: Attagene CIS-FACTORIAL HepG2 Assay for human Retinoic Acid Receptor Alpha (RARE), DR5 submotif (AID 2282934); conditions: HepG2 Attagene cis-factorial RARE DR5 reporter, mRNA; actives raise or lower the signal
Sequence (P10276 whole entry, looked up): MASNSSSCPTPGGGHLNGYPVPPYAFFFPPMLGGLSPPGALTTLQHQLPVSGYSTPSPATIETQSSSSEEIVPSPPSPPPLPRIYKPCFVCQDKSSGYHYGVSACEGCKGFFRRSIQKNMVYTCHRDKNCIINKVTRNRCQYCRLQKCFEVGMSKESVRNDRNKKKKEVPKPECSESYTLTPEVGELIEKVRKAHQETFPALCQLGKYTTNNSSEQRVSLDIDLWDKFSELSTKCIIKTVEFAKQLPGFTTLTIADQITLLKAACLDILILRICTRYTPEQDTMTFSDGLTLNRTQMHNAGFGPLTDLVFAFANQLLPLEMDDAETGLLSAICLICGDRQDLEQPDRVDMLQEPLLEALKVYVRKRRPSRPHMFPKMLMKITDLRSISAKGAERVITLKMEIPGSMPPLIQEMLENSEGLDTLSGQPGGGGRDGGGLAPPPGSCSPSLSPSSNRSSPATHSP
Active and inactive are the calls of the source. Rule for the calls: active = hit-call score of the fitted dose curve at least 0.9, where 1 is the maximum; inactive = score below 0.9.
Parameter call: string, one of yes (1) for active, no (0) for inactive

Examples with answers:
MOLECULE	ANSWER_LABEL
COC(=O)c1ccccc1O	no (0)
O=C(O)c1cccc(N(Cc2cccnc2)c2ccc(OC(F)F)c(OC(F)F)c2)c1	no (0)
Cc1[nH]cnc1C[C@H]1CCc2c(C)c3ccccc3n2C1=O	no (0)
CC(C)CCO	no (0)
O=C1CCCCCN1	no (0)

*Q* Per the records of this test, what outcome belongs to CC(=O)c1ccc2c(c1)[C@H](NC(=O)c1ccc(F)cc1)[C@@H](O)C(C)(C)O2 ?
*A* no (0)

*Q* Follow-up entry: CCCCCCc1ccc(O)cc1O
*A* no (0)

*Q* Same lookup for Oc1ccc2c(c1)-c1ccccc1C2 , please.
*A* yes (1)

*Q* Another molecule to look at: COC(=O)CC(=O)OC
*A* no (0)

*Q* Would you kindly repeat that for Fc1ccccc1[C@@H](F)COC1CCC(Nc2ncnc3[nH]ncc23)CC1 (stereo partly specified) ?
*A* no (0)

*Q* Now the same for CC1(C)C(=O)N(Br)C(=O)N1Br
*A* no (0)

*Q* Please answer likewise for CC(C)=CCCC(C)CCO (stereo unspecified)
*A* no (0)

* * *

read-out: Human Leukocyte Antigen - DR isotype (HLADR), HLA-DRA (gene 3122); assay: BSK_CASM3C_HLADR: BioMAP Diversity Plus: CASM3C Assay for Human Leukocyte Antigen - DR isotype (HLADR) Biomarker Activity (AID 2283043); details: primary human coronary artery smooth muscle cells; actives raise or lower the signal;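 note: cell-surface HLA-DR protein level quantified by ELISA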
Active and inactive are the calls of the source. Rule for the calls: active = hit-call score of the fitted dose curve at least 0.9, where 1 is the maximum; inactive = score below 0.9.
// one of y = active, n = inactive, no free text

Solved cases below.
COMPOUND	ANSWER_LABEL
CC(=O)OC[C@H]1O[C@@](COC(C)=O)(O[C@H]2O[C@H](COC(C)=O)[C@@H](OC(C)=O)[C@H](OC(C)=O)[C@H]2OC(C)=O)[C@@H](OC(C)=O)[C@@H]1OC(C)=O	n
CCCCCCCCCCCCc1ccccc1	n

*Q* For C[C@](N)(Cc1ccc(O)c(O)c1)C(=O)O , what call appears in the results of this test?
*A* n

*Q* Please do the same for CC[C@H](C)C(=O)O[C@H]1C[C@@H](C)C=C2C=C[C@H](C)[C@H](CC[C@@H]3C[C@@H](O)CC(=O)O3)[C@H]21 as well.
*A* y

*Q* Now give it for CC(=O)c1ccc2c(c1)[C@H](NC(=O)c1ccc(F)cc1)[C@@H](O)C(C)(C)O2 too.
*A* n

*Q* Next compound: O=C1OC(=O)C2C3C=CC(C3)C12 (configuration not stated)
*A* n

*Q* Also check CCc1cc(SCc2sc(-c3ccc(C(F)(F)F)cc3)nc2CN2CCN(c3ccc(OC)cc3)CC2)ccc1OCC(=O)O
*A* y

*Q* Request: CC(O)CN(CCN(CC(C)O)CC(C)O)CC(C)O (configuration not stated)
*A* n

*Q* What do you get for CC(=O)OCCC(C)C ?
*A* n

*Q* Now give it for Cc1ccc(O)cc1 too.
*A* n

*Q* Subsequent entry: CCCC(=O)OCC
*A* n

*Q* And O=C(O)CCN(C1(C(=O)NO)CCCC1)S(=O)(=O)c1ccc(Oc2ccc(F)cc2)cc1 ?
*A* n
